# Tested on: A673/TR/shEF
# test_details: cell viability (LOESS-normalised, relative to median of negative controls) (log2 ratio); higher = more viable cells (less compound effect), active = hit call of the paper (over 3 MAD below the median)
# conditions_used: 8.3 µM; library screen: screen3; EWS-FLI1 expression: high (no doxycycline); treatment time: 72 h
The whole screen tested about 3,200 compounds, of which about 300 (9.4%) showed activity. This excerpt belongs to a sample that is enriched for actives.
hey, just use true if measured cell viability (log2) is less than -0.2, otherwise false

compound	class
COc1c(O)cc(C2Oc3c(c(O)cc(O)c3[C@H]3c4c(O)cc(O)cc4O[C@H](c4ccc(O)cc4)[C@@H]3O)C[C@H]2O)cc1O (some centres not stated)	false
CS(=O)(=O)CCNCc1ccc(-c2ccc3ncnc(Nc4ccc(OCc5cccc(F)c5)c(Cl)c4)c3c2)o1	false
C[C@@H]1C/C=C/C=C/C=C/C=C/[C@H](OC2O[C@H](C)[C@@H](O)[C@H](N)[C@@H]2O)C[C@@H]2O[C@](O)(C[C@@H](O)C[C@H]3O[C@@H]3/C=C/C(=O)O1)C[C@H](O)[C@H]2C(=O)O (some centres not stated)	false
C=CC(=O)Nc1cc2c(Nc3ccc(F)c(Cl)c3)ncnc2cc1OCCCN1CCOCC1	false
COc1cc2ncnc(Nc3ccc(F)c(Cl)c3)c2cc1OCCCN1CCOCC1	false
CN1CCN(CCOc2cc(OC3CCOCC3)c3c(Nc4c(Cl)ccc5c4OCO5)ncnc3c2)CC1	true
C[C@@H](Oc1cc(-c2cnn(C3CCNCC3)c2)cnc1N)c1c(Cl)ccc(F)c1Cl	false
COc1c(C)c2c(c(O)c1C/C=C(\C)CCC(=O)OCCN1CCOCC1)C(=O)OC2	false
C[C@]12CC[C@@H]3c4ccc(O)cc4CC[C@H]3[C@@H]1CC[C@@H]2O	false
CCN(CC)C(=S)SSC(=S)N(CC)CC	true
CC[C@]1(O)C[C@H]2CN(CCc3c([nH]c4ccccc34)[C@@](C(=O)OC)(c3cc4c(cc3OC)N(C=O)[C@H]3[C@@](O)(C(=O)OC)[C@H](OC(C)=O)[C@]5(CC)C=CCN6CC[C@]43[C@@H]65)C2)C1	true
C[C@H](NCCc1ccc(O)cc1)[C@H](O)c1ccc(O)cc1	false
COc1c/c(=C2\C=c3ccccc3=N2)[nH]/c1=C\c1[nH]c(C)cc1C	true
COc1cc2c(Nc3ccc(Br)cc3F)ncnc2cc1OCC1CCN(C)CC1	false
Cc1nnc(C(C)C)n1C1C[C@H]2CC[C@@H](C1)N2CC[C@H](NC(=O)C1CCC(F)(F)CC1)c1ccccc1 (some centres not stated)	false
COc1cc2c(N3CCN(C(=O)Nc4ccc(OC(C)C)cc4)CC3)ncnc2cc1OCCCN1CCCCC1	false
CN(C)CCCN1c2ccccc2Sc2ccc(Cl)cc21	false

* * *

# Test system: A673/TR/shEF
# test_details: cell viability (LOESS-normalised, relative to median of negative controls) (log2 ratio); higher = more viable cells (less compound effect), active = hit call of the paper (over 3 MAD below the median)
# conditions_used: 2.5 µM; library screen: screen2; EWS-FLI1 expression: high (no doxycycline); treatment time: 72 h
The whole screen tested about 3,200 compounds, of which about 300 (9.4%) showed activity. The sample holds actives, similar compounds and a random draw of the others, so the mix is not that of the screen.
Classes used: t (active), f (inactive)

compound	class
CC(C)(C)[C@]1(O)CCN2CC3c4ccccc4CCc4cccc(c43)[C@@H]2C1 (stereo partly specified)	f
Nc1ncnc2c1ncn2C1CCCO1 (stereo unspecified)	t
O=C(c1ccc(F)cc1)C1CCN(CCn2c(=O)[nH]c3ccccc3c2=O)CC1	t
Cc1cccc(C)c1OCC(N)C(C)C (stereo unspecified)	f
Nc1ncnc2c1ncn2[C@@H]1O[C@H](CO)[C@@H](O)[C@@H]1O	f
Nc1nccc2c1ncn2[C@@H]1O[C@H](CO)[C@@H](O)[C@H]1O	f
CNc1ncnc2c1ncn2[C@@H]1O[C@H](CO)[C@@H](O)[C@H]1O	f
[Cl][Pt+2][Cl].[NH2-].[NH2-]	f
O=C(O)CCC(=O)OCC(NC(=O)C(Cl)Cl)C(O)c1ccc([N+](=O)[O-])cc1 (stereo unspecified)	f
OC[C@H]1O[C@@H](n2cnc3c(NCCc4ccccc4)ncnc32)C(O)[C@H]1O (stereo partly specified)	f
CCN(CC)C(=S)SSC(=S)N(CC)CC	t

* * *

# Tested on: A673/TR/shEF
# test_details: cell viability (LOESS-normalised, relative to median of negative controls) (log2 ratio); higher = more viable cells (less compound effect), active = hit call of the paper (over 3 MAD below the median)
# conditions_used: 0.308 µM; library screen: screen3; EWS-FLI1 expression: low (doxycycline-induced shRNA knockdown); treatment time: 72 h
About 300 (9.4%) of roughly 3,200 compounds showed activity. For the sample, actives were picked, then their nearest neighbours and some compounds at random.

molecule	cell viability (log2)
COc1cc2c(N3CCN(C(=O)Nc4ccc(OC(C)C)cc4)CC3)ncnc2cc1OCCCN1CCCCC1	-0.0392
COc1cc2c(Nc3ccc(Br)cc3F)ncnc2cc1OCC1CCN(C)CC1	0.068
COc1ccc2nc([S+]([O-])Cc3ncc(C)c(OC)c3C)[nH]c2c1 (configuration not stated)	0.0199
Cc1nc(N)sc1-c1ccnc(Nc2ccc(N3CCOCC3)cc2)n1	0.0424
COc1ccc2nc([S@@+]([O-])Cc3ncc(C)c(OC)c3C)[nH]c2c1	2e-05
O=C1[C@H](Cc2ccc(O)cc2)N2C(=O)CCN(C(=O)NCc3ccccc3)[C@H]2CN1Cc1cccc2ccccc12	0.0327
C=CC(=O)Nc1cc2c(Nc3ccc(F)c(Cl)c3)ncnc2cc1OCCCN1CCOCC1	0.0224

* * *

# Test system: A673/TR/shEF
# test_details: cell viability (LOESS-normalised, relative to median of negative controls) (log2 ratio); higher = more viable cells (less compound effect), active = hit call of the paper (over 3 MAD below the median)
# conditions_used: 0.25 µM; library screen: screen1; EWS-FLI1 expression: low (doxycycline-induced shRNA knockdown); treatment time: 72 h
The whole screen tested about 3,200 compounds, of which about 300 (9.4%) showed activity. Many of the other results were omitted from the sample, so actives are more common in it than they were.
Criterion: cell viability (log2) strictly under 0.03. Met: condition met. Not met: condition not met.

compound	class
CCCCCCCCCCCCCCCCCC(=O)OC(CC(=O)O)C[N+](C)(C)C (centres undefined)	condition met
NCCCC(N)CC(=O)NCC1NC(=O)C(CO)NC(=O)C(N)CNC(=O)C(C2CCN=C(N)N2)NC(=O)/C(=C/NC(N)=O)NC1=O (centres undefined)	condition not met
C=C1C(=O)OC2CC1C(OC(C)=O)C/C(C)=C/CC/C(C)=C\CCC2(C)O (centres undefined)	condition met
CS(=O)(=O)Nc1ccc([N+](=O)[O-])cc1Oc1ccccc1	condition not met
CC(C)n1cnc2c(NCc3ccccc3)nc(NCCO)nc21	condition met
Cn1cnc2c(NCc3ccccc3)nc(NCCO)nc21	condition not met
CC[C@H](CO)Nc1nc(NCc2ccccc2)c2ncn(C(C)C)c2n1	condition met
CC[C@H]1OC(=O)[C@H](C)[C@@H](O[C@H]2C[C@@](C)(OC)[C@@H](O)[C@H](C)O2)[C@H](C)[C@@H](O[C@@H]2O[C@H](C)C[C@H](N(C)C)[C@H]2O)[C@](C)(O)C[C@@H](C)[C@@H]2N[C@@H](COCCOC)OC([C@H]2C)[C@]1(C)O	condition not met
CCOC(=O)C1(O)Oc2cc(OC)cc(OC)c2C(=O)C1c1ccccc1 (centres undefined)	condition not met

* * *

# Test system: A673/TR/shEF
# test_details: cell viability (LOESS-normalised, relative to median of negative controls) (log2 ratio); higher = more viable cells (less compound effect), active = hit call of the paper (over 3 MAD below the median)
# conditions_used: 2.8 µM; library screen: screen3; EWS-FLI1 expression: high (no doxycycline); treatment time: 72 h
The campaign covered roughly 3,200 compounds. About 300 (9.4%) showed activity. The sample as a whole holds a higher share of actives than the screen did.
Labels: 1 (yes) = active, 0 (no) = inactive

compound	class
CNC(=O)c1c(F)cccc1Nc1nc(Nc2cc3c(cc2OC)CCN3C(=O)CN(C)C)nc2[nH]ccc12	1 (yes)
C[C@@H](Oc1cc(-c2cnn(C3CCNCC3)c2)cnc1N)c1c(Cl)ccc(F)c1Cl	0 (no)
Cc1ccc(C(=O)Nc2ccc(CN3CCN(C)CC3)c(C(F)(F)F)c2)cc1C#Cc1cnc2cccnn12	1 (yes)
CO[C@H]1CC2CC[C@@H](C)[C@@](O)(O2)C(=O)C(=O)N2CCCC[C@H]2C(=O)O[C@H]([C@H](C)C[C@@H]2CC[C@@H](OP(C)(C)=O)[C@H](OC)C2)CC(=O)[C@H](C)/C=C(\C)[C@@H](O)[C@@H](OC)C(=O)[C@H](C)C[C@H](C)/C=C/C=C/C=C/1C	1 (yes)
CO[C@H]1C[C@@H]2CC[C@@H](C)[C@@](O)(O2)C(=O)C(=O)N2CCCC[C@H]2C(=O)O[C@H]([C@H](C)C[C@@H]2CC[C@@H](OCCO)[C@H](OC)C2)CC(=O)[C@H](C)/C=C(\C)[C@@H](O)[C@@H](OC)C(=O)[C@H](C)C[C@H](C)/C=C/C=C/C=C/1C	1 (yes)
O=c1[nH]c(=O)n([C@H]2C[C@H](O)[C@@H](CO)O2)cc1C(F)(F)F	0 (no)
CC[C@]1(O)C[C@H]2CN(CCc3c([nH]c4ccccc34)[C@@](C(=O)OC)(c3cc4c(cc3OC)N(C=O)[C@H]3[C@@](O)(C(=O)OC)[C@H](OC(C)=O)[C@]5(CC)C=CCN6CC[C@]43[C@@H]65)C2)C1	1 (yes)
CN(C)CCCN1c2ccccc2Sc2ccc(Cl)cc21	0 (no)
C=CC(=O)N1CCC[C@@H](n2nc(-c3ccc(Oc4ccccc4)cc3)c3c(N)ncnc32)C1	0 (no)
CCCCCOC(=O)Nc1nc(=O)n([C@@H]2O[C@H](C)[C@@H](O)[C@H]2O)cc1F	0 (no)
CCCCC(=O)N(Cc1ccc(-c2ccccc2-c2nn[nH]n2)cc1)[C@H](C(=O)O)C(C)C	0 (no)
CCc1nc(N)nc(N)c1-c1ccc(Cl)cc1	0 (no)
CC(C(=O)O)c1cccc(C(=O)c2ccccc2)c1 (centres undefined)	0 (no)
O=c1[nH]c(=O)n([C@H]2C[C@H](O)[C@@H](CO)O2)cc1F	1 (yes)
COc1cc2c(Oc3ccc4[nH]c(C)cc4c3F)ncnc2cc1OCCCN1CCCC1	0 (no)
COC(=O)Nc1nc2ccc(Sc3ccccc3)cc2[nH]1	1 (yes)
CCN(CC)CCNC(=O)c1c(C)[nH]c(/C=C2\C(=O)Nc3ccc(F)cc32)c1C	0 (no)
Nc1ncnc2c1ncn2[C@@H]1O[C@H](CO)[C@@H](O)[C@H]1O	0 (no)
Cc1cc(Nc2cc(CN3CCOCC3)c3nc(C)c(Cc4ccc(Cl)cc4F)n3n2)n[nH]1	1 (yes)
CCCCCCCCc1ccc(CCC(N)(CO)CO)cc1	0 (no)
CC(C)n1c(/C=C/C(O)CC(O)CC(=O)O)c(-c2ccc(F)cc2)c2ccccc21 (centres undefined)	0 (no)
Nc1ncnc2c1ncn2[C@@H]1O[C@H](CO)[C@@H](O)[C@@H]1O	0 (no)
Nc1nc(Cl)nc2c1ncn2[C@@H]1O[C@H](CO)[C@@H](O)[C@@H]1F	1 (yes)
Nc1nc(F)nc2c1ncn2[C@@H]1O[C@H](CO)[C@@H](O)[C@@H]1O	0 (no)
CCCCC1C(=O)N(c2ccccc2)N(c2ccccc2)C1=O	0 (no)
CN1CCCC(n2nc(Cc3ccc(Cl)cc3)c3ccccc3c2=O)CC1 (centres undefined)	0 (no)
c1cc(CN2CCCNCCNCCCNCC2)ccc1CN1CCCNCCNCCCNCC1	0 (no)
COC(=O)Nc1ccc(-c2nc(N3CCOCC3)c3cnn(C4CCN(C(=O)OC)CC4)c3n2)cc1	1 (yes)
COCCn1c2c([n+](Cc3cnccn3)c1C)C(=O)c1ccccc1C2=O	1 (yes)
Cc1cn([C@H]2C=C[C@@H](CO)O2)c(=O)[nH]c1=O	0 (no)
COc1c/c(=C2\C=c3ccccc3=N2)[nH]/c1=C\c1[nH]c(C)cc1C	1 (yes)
COc1ccc(-c2ccc3c(N4CCOC[C@@H]4C)nc(N4CCOC[C@@H]4C)nc3n2)cc1CO	1 (yes)
COc1ccc(-c2ccc3c(N4CCOCC4)nc(N4C[C@@H](C)O[C@@H](C)C4)nc3n2)cc1CO	1 (yes)
CCC1=C[C@@H]2CN(C1)Cc1c([nH]c3ccccc13)[C@@](C(=O)OC)(c1cc3c(cc1OC)N(C)[C@H]1[C@@](O)(C(=O)OC)[C@H](OC(C)=O)[C@]4(CC)C=CCN5CC[C@]31[C@@H]54)C2	1 (yes)
